- experimental details: RFB saturated solubility in DMSO and NMP with or without amphiphilic additives
- condition summary: organic solvent or mixture, thermodynamic from solid, Highest RFB solubility in NMP with Kolliphor HS 15, 8.8% Kolliphor HS 15
recorded metric: solubility at 1 day
// return the numeric value with its unit appended

Lookup: Look up solubility at 1 day for this compound: CO[C@H]1/C=C/O[C@@]2(C)Oc3c(C)c(O)c4c(c3C2=O)C2=NC3(CCN(CC(C)C)CC3)NC2=C(NC(=O)/C(C)=C\C=C\[C@H](C)[C@H](O)[C@@H](C)[C@@H](O)[C@@H](C)[C@H](OC(C)=O)[C@@H]1C)C4=O [RFB, Rifabutin]
Found: 702 mg/mL

---

- experimental details: RFB saturated solubility in DMSO and NMP with or without amphiphilic additives
- condition summary: organic solvent or mixture, thermodynamic from solid, RFB maximum solubility in DMSO, DMSO alone, room temperature; mean±SD
recorded metric: solubility at 1 day (mg/mL)
Report as a plain number; the unit mg/mL is understood.

Lookup: Look up solubility at 1 day for this compound: CO[C@H]1/C=C/O[C@@]2(C)Oc3c(C)c(O)c4c(c3C2=O)C2=NC3(CCN(CC(C)C)CC3)NC2=C(NC(=O)/C(C)=C\C=C\[C@H](C)[C@H](O)[C@@H](C)[C@@H](O)[C@@H](C)[C@H](OC(C)=O)[C@@H]1C)C4=O [RFB, Rifabutin]
Found: 202

From: patent US20250387381A1
